target: S1P1 (Homo sapiens); assay: FLIPR calcium assay, ChemiScreen cells (GPCRProfiler, Millipore); assay type: cell-based; settings: ChemiScreen cells over-expressing human S1P1; 0% proteins in assay media; read-out: EC50, FLIPR, Chem cells
Sequence (P21453 whole entry): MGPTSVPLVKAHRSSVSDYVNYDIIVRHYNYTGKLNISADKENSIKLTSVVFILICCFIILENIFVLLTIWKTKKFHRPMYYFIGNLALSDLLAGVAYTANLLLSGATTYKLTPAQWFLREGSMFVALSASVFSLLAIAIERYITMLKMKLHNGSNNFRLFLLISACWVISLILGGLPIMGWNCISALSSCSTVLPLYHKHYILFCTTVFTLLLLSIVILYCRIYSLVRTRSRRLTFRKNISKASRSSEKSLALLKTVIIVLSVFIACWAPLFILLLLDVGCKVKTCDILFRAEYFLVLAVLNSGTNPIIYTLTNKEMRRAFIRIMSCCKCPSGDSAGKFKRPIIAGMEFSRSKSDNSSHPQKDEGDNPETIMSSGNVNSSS
pEC50: −log10 of the molar value.
reported metric: pEC50

Hey, S1P1 (Homo sapiens) data for `CCc1cc(/C(C)=N/OCc2ccc(C3CCCCC3)c(C(F)(F)F)c2)ccc1CN1CC(C(=O)O)C1` : pEC50 came out at 7.54

A: CCCCCCCCCCCCC/C=C/[C@@H](O)[C@@H](N)COP(=O)(O)O [Compound S1P, Sphingosine-1-phosphate]
B: Cc1cc(-c2nc3cnc(Oc4cccc(Cl)c4)nc3o2)cc(C)c1OCC(=O)O
Task item: When the recorded pEC50 values are compared, which is smaller: that of A or that of B ? Please reply using the label of the selected record.
Reply: B
(B: 7.07, A: 8.02)

* * *

molecular target: S1P1 (Homo sapiens); assay: cAMP HTRF assay in forskolin-treated HUVEC; format: cell-based; design: host or cells: HUVEC (primary); conditions: 0.1% BSA
reported metric: EC50 (µM)

a: CCc1cc(/C(C)=N/OCc2ccc(C3CCCCC3)c(C(F)(F)F)c2)ccc1CN1CC(C(=O)O)C1
b: Cc1cc(-c2nc3cnc(Oc4cccc(Cl)c4)nc3o2)cc(C)c1OCC(=O)O
Task item: When the recorded EC50 values are compared, which is smaller: that of a or that of b ? Please reply using the label of the selected record.
Reply: a

* * *

molecular target: S1P1 (Homo sapiens); experiment: Impedance assay in HUVEC; type: cell-based; set-up: host or cells: HUVEC (primary); settings: 2% FBS
pEC50: −log10 of the molar value.
reported metric: pEC50

A: CCc1cc(/C(C)=N/OCc2ccc(C3CCCCC3)c(C(F)(F)F)c2)ccc1CN1CC(C(=O)O)C1
B: Cc1cc(-c2nc3cnc(Oc4cccc(Cl)c4)nc3o2)cc(C)c1OCC(=O)O
Task item: Among A and B , which shows a numerically higher pEC50 result? Please reply using the label of the selected record.
Reply: A
(A: 9.68, B: 6.76)

* * *

molecular target: S1P5 (Homo sapiens); test: PathHunter β-arrestin assay, S1P5; assay type: cell-based; settings: 0.5% FBS
Sequence (Q9H228 whole entry): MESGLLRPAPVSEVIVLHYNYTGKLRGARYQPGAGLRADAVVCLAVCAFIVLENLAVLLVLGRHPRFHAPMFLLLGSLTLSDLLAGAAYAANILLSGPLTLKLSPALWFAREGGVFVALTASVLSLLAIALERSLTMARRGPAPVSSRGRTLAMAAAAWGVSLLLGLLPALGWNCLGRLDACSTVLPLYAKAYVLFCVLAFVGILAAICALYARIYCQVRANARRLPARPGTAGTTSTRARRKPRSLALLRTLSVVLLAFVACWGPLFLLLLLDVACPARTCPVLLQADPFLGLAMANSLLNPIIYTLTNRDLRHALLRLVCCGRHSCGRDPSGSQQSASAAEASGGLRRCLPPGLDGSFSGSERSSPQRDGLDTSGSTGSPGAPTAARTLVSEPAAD
reported metric: EC50 (µM)

P: Cc1cc(-c2nc3cnc(Oc4cccc(Cl)c4)nc3o2)cc(C)c1OCC(=O)O
Q: CCc1cc(/C(C)=N/OCc2ccc(C3CCCCC3)c(C(F)(F)F)c2)ccc1CN1CC(C(=O)O)C1
Task item: Among P and Q , which shows a numerically higher EC50 result? Please reply using the label of the selected record.
Reply: P
(P: 1.3 µM, Q: 0.035 µM)

* * *

biological target: S1P2 (Homo sapiens); assay: FlipR (Chem) GPCRProfiler assay, S1P2; assay type: cell-based
Sequence (O95136 whole entry): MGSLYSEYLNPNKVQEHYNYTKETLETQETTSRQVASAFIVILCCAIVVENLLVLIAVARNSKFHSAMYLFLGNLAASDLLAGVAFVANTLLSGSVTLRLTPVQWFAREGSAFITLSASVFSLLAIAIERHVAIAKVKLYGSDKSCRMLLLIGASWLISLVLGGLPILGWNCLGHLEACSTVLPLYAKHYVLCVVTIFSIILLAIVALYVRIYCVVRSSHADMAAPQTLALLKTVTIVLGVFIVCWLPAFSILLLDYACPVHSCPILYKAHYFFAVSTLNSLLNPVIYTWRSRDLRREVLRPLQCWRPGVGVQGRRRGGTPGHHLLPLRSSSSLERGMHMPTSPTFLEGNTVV
reported metric: EC50

Looking up `Cc1cc(-c2nc3cnc(Oc4cccc(Cl)c4)nc3o2)cc(C)c1OCC(=O)O` , I see its EC50 listed as > 30 µM

New cases:
Looking up `CCc1cc(/C(C)=N/OCc2ccc(C3CCCCC3)c(C(F)(F)F)c2)ccc1CN1CC(C(=O)O)C1` , I see its EC50 listed as > 30 µM

Looking up `CCCCCCCCc1ccc(CCC(N)(CO)CO)cc1` , I see its EC50 listed as > 30 µM
